# assay system: L-lactate dehydrogenase (Plasmodium falciparum (isolate CDC / Honduras))
# assay name: PfLDH activity inhibition – cell lysate, 3D7 strain, counter-screen for P. falciparum growth inhibition project (AID 2304);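 note: 0% = vehicle and 100% = reference inhibitor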
# condition description: P. falciparum 3D7 crude extract, LDH APAD/NBT absorbance; at 2 µM; hits give high values
measurement kind: inhibition (%)

INSERT INTO assay_data (compound, unit_name, experimental_value) VALUES
  ('CC1(C)N=C(N)N=C(N)N1OCCCCCCOc1ccc(Cl)c2ccccc12', '%', 1),
  ('COCCn1c(C)nc2ccccc2c1=O', '%', -3),
  ('CS(=O)(=O)Nc1ccc2[nH]cc(C3CCN(CCCCCNC(=O)/C=C/c4ccc(Cl)c(Cl)c4)CC3)c2c1', '%', 5),
  ('O=C(Nc1cccc(C(F)(F)F)c1)c1cccc(S(=O)(=O)NCC2CCN(CC3CCCCC3)CC2)c1', '%', 0),
  ('CCCCCN1CCCC(NS(=O)(=O)c2ccc(C(=O)Nc3ccc(C(F)(F)F)cc3)cc2)C1 (centres undefined)', '%', 4),
  ('COc1ccc(NC(=O)/C=C/c2ccc(-c3ccccc3)cc2)cc1N1CCN(C)CC1', '%', 6),
  ('O=C(NC1CCN(Cc2ccccc2)CC1)c1cccc(-c2cc3cc(Cl)c(Cl)cc3[nH]2)c1', '%', -6),
  ('CS(=O)(=O)CCOCc1ccc(-c2ccc3ncnc(Nc4ccc(OCc5cccc(F)c5)c(Cl)c4)c3c2)o1', '%', 5),
  ('O=C(NCc1ccc(Cl)cc1)c1ccc(C(=O)NCC2CCCN2CC2CCCCC2)cc1 (centres undefined)', '%', -11);

* * *

# assay name: antimalarial activity against Dd2 strain (AID 2302);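 note: 0% = DMSO untreated growth and 100% = chloroquine plus artemisinin killed control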
# condition description: P. falciparum Dd2 in RBCs, LDH growth readout, 72 h; at 2 µM
Activity calls are given as the source filed them.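 Rule for the calls: active = growth inhibition above 50% at the single 2 µM test dose, taken to imply half-maximal potency below 2 µM; inactive = the rest.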
Classes used: 1 (yes) = active, 0 (no) = inactive

INSERT INTO results (compound, group_label) VALUES
  ('Cc1ccc(N(CCC(=N)N)Cc2ccccc2)cc1', '1 (yes)'),
  ('Cc1nc2ccc3nc(NC(=O)c4ccno4)sc3c2s1', '1 (yes)'),
  ('CN(C(=O)C1(c2ccc(Cl)cc2)CC1)C1CCN(CCCCCNC(=O)/C=C/c2ccc(Cl)c(Cl)c2)CC1', '0 (no)'),
  ('COc1ccc(N2CCN(CCc3ccc(NC(=O)c4ccc([N+](=O)[O-])cc4)cc3)CC2)c(OC)c1', '0 (no)'),
  ('CNCCNCc1ccc(-c2ccc(-c3nc4c(C)cccc4[nH]3)s2)cc1', '0 (no)'),
  ('O=C(Nc1ccnc(N2C[C@H]3C[C@@H]2CN3Cc2cccc(O)c2)c1)c1ccc(F)cc1', '0 (no)'),
  ('CCC1(c2ccccc2)N=C(N)N(CCCc2ccccc2)C1=O (stereo not given)', '1 (yes)'),
  ('O=C(NCCN1CCC(c2ncc(-c3ccccc3)o2)CC1)c1ccc(NC(=O)c2ccc(Cl)cc2)cc1', '1 (yes)'),
  ('CC(C)C(C(=O)Nc1ccc2c(c1)OCO2)c1ccc(Cl)cc1 (stereo not given)', '1 (yes)'),
  ('N#Cc1ccc(-c2nc3c(N4CCCC4)cccc3n2CCNCc2ccccc2)cc1', '1 (yes)'),
  ('CCN1CCN(CC(O)CNC(=O)Nc2ccc(Cl)cc2)CC1 (stereo not given)', '1 (yes)'),
  ('CCCCCCCCCN1CC[C@@H](CCCc2ccnc3ccc(O)cc23)[C@@H](CC)C1', '1 (yes)'),
  ('COc1cc2nc(N3CCC(CNC(=O)c4ccc(-c5cccc(C#N)c5)cc4)CC3)nc(N)c2cc1OC', '1 (yes)'),
  ('Cc1c[nH]c2cc(/C=C/C(=O)NC3CCC(CCN4CCc5ccc(C#N)cc5CC4)CC3)ccc12 (stereo not given)', '1 (yes)'),
  ('COc1ccc2ccc(F)c(CCN3CCC(NCc4cc5c(cn4)OCCO5)CC3)c2n1', '0 (no)'),
  ('Cc1[nH]c(C)c(-c2ccc(OCc3ccc(OC(F)(F)F)cc3)nc2)c(=O)c1Cl', '1 (yes)'),
  ('NC(N)=NN=Cc1cc([N+](=O)[O-])ccc1Sc1ccccc1CO', '0 (no)'),
  ('COc1ccc(CN(C)CCCOc2ccc(NC(=O)C=Cc3ccc(C(C)(C)C)cc3)cc2)cc1OC', '1 (yes)'),
  ('COc1ccc(CNCc2cccc(-c3ccc(-c4nc5c(C)cccc5[nH]4)cc3)c2)cc1', '1 (yes)'),
  ('O=C(Nc1ccc2ccccc2n1)c1ccccc1-c1ccccc1', '1 (yes)');
